- Tested Target: T1, cyno CCL17 (Macaca fascicularis (cyno), UniProt Q8HYP9 24-94 (rhesus entry))
- T1 construct: Biotinylated in the Fab ELISAs; also called cCCL17; cCCL-17
- T1 sequence: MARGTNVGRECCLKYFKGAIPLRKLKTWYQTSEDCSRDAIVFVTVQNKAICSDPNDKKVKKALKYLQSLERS
- Assay Explanation: solution equilibrium affinity (MSD-SEA), TBST, 48 h at 4 °C
For each of the binders below, state its pKd.
One number for each entry, as −log10 of the molar value.

// for each binder below, give its pKd
1. C17B239 (antibody, V domains shown, Full IgG1, kappa) VH: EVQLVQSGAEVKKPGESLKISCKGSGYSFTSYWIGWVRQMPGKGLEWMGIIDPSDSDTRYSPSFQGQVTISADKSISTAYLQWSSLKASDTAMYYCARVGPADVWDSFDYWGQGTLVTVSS VL: DIVMTQSPDSLAVSLGERATINCKSSQSVLSSFTNTNTLAWYQQKPGQPPKLLIYHASTRESGVPDRFSGSGSGTDFTLTISSLQAEDVAVYYCQQYLIYPSTFGQGTKVEIK
2. C17B234 (antibody, V domains shown, Full IgG1, kappa) VH: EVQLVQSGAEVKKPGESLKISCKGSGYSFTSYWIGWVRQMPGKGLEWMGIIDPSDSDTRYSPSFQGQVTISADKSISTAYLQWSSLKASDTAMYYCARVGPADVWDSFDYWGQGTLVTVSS VL: DIVMTQSPDSLAVSLGERATINCKSSQSVLLSFDNINKLAWYQQKPGQPPKLLIYNASTRESGVPDRFSGSGSGTDFTLTISSLQAEDVAVYYCQQFYSVPSTFGQGTKVEIK

9.20
9.64
